binders and their reported T1/2
# targetUnderTest: TrkB (Homo sapiens (Human), UniProt Q16620 32-430)
# Sequence (Q16620 32-430 limits assumed): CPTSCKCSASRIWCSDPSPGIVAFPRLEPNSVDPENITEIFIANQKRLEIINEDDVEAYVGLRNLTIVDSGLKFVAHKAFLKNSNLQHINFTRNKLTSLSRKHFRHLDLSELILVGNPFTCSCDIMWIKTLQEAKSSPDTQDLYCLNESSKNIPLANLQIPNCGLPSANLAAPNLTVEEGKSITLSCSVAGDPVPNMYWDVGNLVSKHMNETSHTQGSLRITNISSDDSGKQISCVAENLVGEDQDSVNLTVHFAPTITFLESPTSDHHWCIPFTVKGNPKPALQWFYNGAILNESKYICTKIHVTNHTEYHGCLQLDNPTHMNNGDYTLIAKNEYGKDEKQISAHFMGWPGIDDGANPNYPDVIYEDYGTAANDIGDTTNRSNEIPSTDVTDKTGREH
# assayMethodText: koff of Fab at 25 C; T1/2=Log2/koff
measuredParameter: T1/2 (min)

binder | measured
11-C6 (Fab, V domains shown, Fab) VH: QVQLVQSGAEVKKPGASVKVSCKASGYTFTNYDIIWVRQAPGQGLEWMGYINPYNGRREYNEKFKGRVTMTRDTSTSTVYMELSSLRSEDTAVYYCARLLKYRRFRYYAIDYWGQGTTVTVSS VL: DIQMTQSPSSLSASVGDRVTITCRASSNVYSNLAWYQQKPGKAPKLLIYAASNLQSGVPSRFSGSGSGTDYTFTISSLQPEDIATYYCQHFWGSPFTFGQGTKLEIK | 10.8
10-C7 (Fab, V domains shown, Fab) VH: QVQLVQSGAEVKKPGASVKVSCKASGYTFTNYDIIWVRQAPGQGLEWMGHINPYNGRREYNEKFKGRVTMTRDTSTSTVYMELSSLRSEDTAVYYCARLLKYRRFRYYAIDYWGQGTTVTVSS VL: DIQMTQSPSSLSASVGDRVTITCRASESVYSNLAWYQQKPGKAPKLLIYAASNLQSGVPSRFSGSGSGTDFTFTISSLQPEDIATYYCQHFVYSPFTFGQGTKLEIK | 4.1
4-C7 (Fab, V domains shown, Fab) VH: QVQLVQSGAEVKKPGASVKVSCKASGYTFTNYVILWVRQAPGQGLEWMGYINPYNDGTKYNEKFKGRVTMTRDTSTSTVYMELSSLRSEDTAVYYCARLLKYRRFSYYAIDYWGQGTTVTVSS VL: DIQMTQSPSSLSASVGDRVTITCRASENVYSNLAWYQQKPGKAPKLLIYAASNLQSGVPSRFSGSGSGTDFTFTISSLQPEDIATYYCQHFWGSPFTFGQGTKLEIK | 1.4

Values were extracted from patent US20100196390A1.
